Each record here notes measured pIC50.
biological target: human recombinant HDAC6 (Homo sapiens, UniProt Q9UBN7); construct: purchased Calbiochem Inc. 382180; experiment: HDAC6 enzyme activity inhibition (HDAC Fluorimetric Drug Discovery Kit); format: biochemical; conditions: human recombinant HDAC6, same protocol as HDAC1
Conceptually, pIC50 converts a concentration in mol/L into minus its log10.

Fc1cc(-c2nnc(C(F)F)o2)ccc1Cn1cc(-c2cncc(-c3cn[nH]c3)c2)nn1; 7.74

Note to self: pIC50 recorded for Fc1cc(-c2nnc(C(F)F)o2)ccc1Cn1cc(-c2ccc(N3CCN(C4CCOCC4)CC3)c(F)c2)nn1 was 7.00

Note to self: pIC50 recorded for CC(C)N1Cc2ccc(-c3cn(Cc4ccc(-c5nnc(C(F)F)o5)cn4)nn3)cc2C1 was 7.47

Note to self: pIC50 recorded for CN1CCN(Cc2ccc(-c3cn(Cc4ccc(-c5nnc(C(F)F)o5)cn4)nn3)cc2)CC1 was 7.62

Note to self: pIC50 recorded for CC1CCN(Cc2ccc(-c3cn(Cc4ncc(-c5nnc(C(F)F)o5)cc4F)nn3)cc2)CC1 was 7.31

====

target: human recombinant HDAC6 (Homo sapiens, UniProt Q9UBN7); construct: purchased Calbiochem Inc. 382180; assay: HDAC6 enzyme activity inhibition (HDAC Fluorimetric Drug Discovery Kit); format: biochemical; details: human recombinant HDAC6; IC50 calculated with GraphPad Prism
Under this convention, t denotes IC50 strictly below 50 nM and f denotes IC50 at or above 50 nM.

CC(C)N1CCC(F)(c2cn(Cc3ccc(-c4nnc(C(F)F)o4)cn3)nn2)CC1; t

Quick check: IC50 of O=C(Nc1cccc(-c2cn(Cc3ccc(-c4nnc(C(F)F)o4)cc3F)nn2)c1)C(F)(F)F under 50 nM?
t

Quick check: IC50 of CN(C)Cc1c(-c2ccccc2)nnn1Cc1ccc(-c2nnc(C(F)F)o2)cc1F under 50 nM?
f

Quick check: IC50 of CCN1CC(c2cn(Cc3ccc(-c4nnc(C(F)F)o4)cn3)nn2)C1 under 50 nM?
f

Quick check: IC50 of Fc1ccc(-c2cn(Cc3ccc(-c4nnc(C(F)F)o4)cn3)nn2)cc1 under 50 nM?
t

====

Biological target: human recombinant HDAC6 (Homo sapiens, UniProt Q9UBN7)
Construct: purchased Calbiochem Inc. 382180
Sequence (Q9UBN7 1-1215): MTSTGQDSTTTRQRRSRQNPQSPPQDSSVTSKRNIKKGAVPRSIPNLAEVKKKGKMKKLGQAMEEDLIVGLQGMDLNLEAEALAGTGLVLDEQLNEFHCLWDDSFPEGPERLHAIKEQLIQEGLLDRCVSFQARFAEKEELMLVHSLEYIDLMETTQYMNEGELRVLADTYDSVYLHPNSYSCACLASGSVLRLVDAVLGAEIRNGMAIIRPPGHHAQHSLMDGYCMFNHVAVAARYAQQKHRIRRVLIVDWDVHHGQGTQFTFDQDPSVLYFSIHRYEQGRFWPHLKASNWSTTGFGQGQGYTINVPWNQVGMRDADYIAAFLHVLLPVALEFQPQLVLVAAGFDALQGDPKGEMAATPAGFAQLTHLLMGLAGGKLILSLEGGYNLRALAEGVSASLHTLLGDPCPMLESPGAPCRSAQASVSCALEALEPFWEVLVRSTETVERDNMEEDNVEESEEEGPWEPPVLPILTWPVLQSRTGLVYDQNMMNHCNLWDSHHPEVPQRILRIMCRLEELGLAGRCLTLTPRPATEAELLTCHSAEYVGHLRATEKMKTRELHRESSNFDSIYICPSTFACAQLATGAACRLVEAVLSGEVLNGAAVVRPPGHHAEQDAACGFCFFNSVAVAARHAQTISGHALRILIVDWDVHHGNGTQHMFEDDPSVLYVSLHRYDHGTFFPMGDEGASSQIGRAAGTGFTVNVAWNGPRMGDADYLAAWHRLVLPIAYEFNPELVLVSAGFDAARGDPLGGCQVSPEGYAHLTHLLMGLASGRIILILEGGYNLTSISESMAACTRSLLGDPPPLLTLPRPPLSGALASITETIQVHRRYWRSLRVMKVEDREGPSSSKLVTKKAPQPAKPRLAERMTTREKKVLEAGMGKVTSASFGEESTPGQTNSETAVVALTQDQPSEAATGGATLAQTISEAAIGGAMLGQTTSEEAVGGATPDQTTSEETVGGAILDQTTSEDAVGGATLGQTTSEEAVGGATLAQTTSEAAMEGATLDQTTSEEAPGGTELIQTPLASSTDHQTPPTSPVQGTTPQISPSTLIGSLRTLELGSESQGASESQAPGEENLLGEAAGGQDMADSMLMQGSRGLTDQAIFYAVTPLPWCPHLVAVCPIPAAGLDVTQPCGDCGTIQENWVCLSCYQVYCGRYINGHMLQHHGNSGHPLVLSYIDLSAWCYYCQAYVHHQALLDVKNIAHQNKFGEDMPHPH
Assay: HDAC6 enzyme activity inhibition (HDAC Fluorimetric Drug Discovery Kit)
Type: biochemical
Details: HDAC6 over HDAC1
Experimental: An experiment was conducted to identify the selectivity of the compound represented by formula I of the present invention to HDAC6 through an experiment on HDAC1 and HDAC6 enzyme activity inhibition. […]
Each record here notes measured HDAC6 selectivity (fold).
Field format: number, assumed fold, no unit text.

Reference set, count: 5
FC(F)c1nnc(-c2ccc(Cn3cc(-c4cccc5c4CN(C4CCC4)C5)nn3)cc2)o1 [Compound 4532]; 327
Fc1cc(-c2cn(Cc3ncc(-c4nnc(C(F)F)o4)cc3F)nn2)ccc1CN1CCCCC1 [Compound 18950]; 570
Fc1cc(-c2nnc(C(F)F)o2)ccc1Cn1cc(-c2ccccc2CN2CC3(COC3)C2)nn1 [Compound 4586]; 225
CN(C)Cc1cc(Cl)cc(-c2cn(Cc3ncc(-c4nnc(C(F)F)o4)cc3F)nn2)c1 [Compound 19090]; 728
Fc1cc(-c2nnc(C(F)F)o2)cnc1Cn1cc(-c2ccc(CN3CCC3)cn2)nn1 [Compound 18622]; 606

Note to self: HDAC6 selectivity (fold) recorded for FC(F)c1nnc(-c2ccc(Cn3cc(-c4cccc(C5CN(C6COC6)C5)c4)nn3)cc2)o1 [Compound 4511] was 325

Note to self: HDAC6 selectivity (fold) recorded for Fc1cc(-c2nnc(C(F)F)o2)ccc1Cn1cc(-c2ccc(CN3CC[C@@H](F)C3)s2)nn1 [Compound 17917] was 881

Note to self: HDAC6 selectivity (fold) recorded for FC(F)c1nnc(-c2ccc(Cn3cc(-c4ccc5c(c4)CN(C4COC4)C5)nn3)nc2)o1 [Compound 4543] was 1326

====

Each record here notes measured IC50.
Molecular target: human recombinant HDAC6 (Homo sapiens)
Construct: purchased Calbiochem Inc. 382180
Sequence (Q9UBN7 1-1215): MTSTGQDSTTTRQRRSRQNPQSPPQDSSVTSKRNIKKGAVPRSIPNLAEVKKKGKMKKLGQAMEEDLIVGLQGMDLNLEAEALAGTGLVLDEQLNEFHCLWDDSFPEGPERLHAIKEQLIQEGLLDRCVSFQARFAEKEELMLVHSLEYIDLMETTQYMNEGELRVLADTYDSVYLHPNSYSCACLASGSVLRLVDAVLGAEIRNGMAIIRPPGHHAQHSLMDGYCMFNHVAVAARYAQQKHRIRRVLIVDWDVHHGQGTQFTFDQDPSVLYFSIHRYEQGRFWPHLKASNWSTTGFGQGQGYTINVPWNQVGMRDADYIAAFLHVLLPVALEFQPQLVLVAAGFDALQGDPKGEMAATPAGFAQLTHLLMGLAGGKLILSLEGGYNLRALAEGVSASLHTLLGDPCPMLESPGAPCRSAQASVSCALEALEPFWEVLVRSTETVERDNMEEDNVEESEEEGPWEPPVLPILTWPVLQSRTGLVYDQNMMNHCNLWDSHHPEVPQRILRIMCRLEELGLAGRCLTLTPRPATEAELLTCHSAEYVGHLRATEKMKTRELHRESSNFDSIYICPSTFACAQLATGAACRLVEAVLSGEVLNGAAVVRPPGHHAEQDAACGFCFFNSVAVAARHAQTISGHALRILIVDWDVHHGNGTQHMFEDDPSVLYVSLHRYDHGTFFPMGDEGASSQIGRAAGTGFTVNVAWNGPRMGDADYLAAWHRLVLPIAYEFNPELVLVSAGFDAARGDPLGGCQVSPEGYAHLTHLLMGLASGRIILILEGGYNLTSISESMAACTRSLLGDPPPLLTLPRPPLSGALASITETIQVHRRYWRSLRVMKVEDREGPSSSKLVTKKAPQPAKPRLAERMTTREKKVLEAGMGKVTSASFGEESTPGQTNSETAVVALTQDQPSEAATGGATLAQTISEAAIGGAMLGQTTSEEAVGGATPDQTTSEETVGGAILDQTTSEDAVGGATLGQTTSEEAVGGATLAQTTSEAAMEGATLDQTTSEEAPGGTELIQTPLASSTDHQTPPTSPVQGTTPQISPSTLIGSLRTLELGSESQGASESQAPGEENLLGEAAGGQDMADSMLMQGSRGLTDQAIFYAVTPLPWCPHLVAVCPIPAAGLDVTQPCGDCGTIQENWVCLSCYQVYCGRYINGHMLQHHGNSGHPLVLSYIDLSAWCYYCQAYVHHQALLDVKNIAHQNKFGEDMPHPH
Assay: HDAC6 enzyme activity inhibition (HDAC Fluorimetric Drug Discovery Kit)
Type: biochemical
Conditions: human recombinant HDAC6, same protocol as HDAC1
Field format: number, assumed nM, no unit text.

Fc1cc(-c2nnc(C(F)F)o2)ccc1Cn1cc(-c2ccnc(N3CCN(C4CCC4)CC3)c2)nn1; 61.9
CN(C)Cc1ccc(-c2cn(Cc3ncc(-c4nnc(C(F)F)o4)cc3F)nn2)cc1; 64.9
Fc1cc(-c2nnc(C(F)F)o2)ccc1Cn1cc(-c2cccc(N3CCN(C4CCC4)CC3)n2)nn1; 51.2

Note to self: IC50 recorded for Fc1cc(-c2nnc(C(F)F)o2)cnc1Cn1cc(-c2cncc(CN3CCC3)c2)nn1 was 163

Note to self: IC50 recorded for CC1CCN(Cc2cccc(-c3cn(Cc4ncc(-c5nnc(C(F)F)o5)cc4F)nn3)c2)CC1 was 64.2

Note to self: IC50 recorded for CN1Cc2ccc(-c3cn(Cc4ccc(-c5nnc(C(F)F)o5)cc4)nn3)cc2C1 was 101

Note to self: IC50 recorded for CC(C)(C)OC(=O)N1CC(N2CCC(c3cccc(-c4cn(Cc5ncc(-c6nnc(C(F)F)o6)cc5F)nn4)c3)CC2)C1 was 299

The values you see were collected from patent US20230257372A1.
